Target: 7N (synthetic construct)
Assay: ELONA; apparent Kd comparable with Zif268, weakest of the three; phage ELISA
Conditions: protein: virion
pKd: −log10 of the molar value.
measured_property: pKd

## Input Entry t2 (dsDNA) DNA 1: TAATGAGAT DNA 2: ATCTCATTA : reported pKd = ?
## Output ~9.00
